Target: T1, Fusion protein of extracellular domain of human TIGIT and His-tag (human TIGIT ECD-his) (human)
T1 chain: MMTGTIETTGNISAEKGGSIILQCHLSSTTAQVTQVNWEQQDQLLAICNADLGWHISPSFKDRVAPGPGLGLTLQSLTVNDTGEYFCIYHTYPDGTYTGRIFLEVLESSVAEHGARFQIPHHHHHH
Assay: BIAcore
pKd: −log10 of the molar value.
attribute_measured: pKd

binder="TIGIT-006-H3L2 (antibody, V domains shown, Humanized anti-TIGIT antibody) VH: EVQLQESGPGLVKPSETLSLTCAVSGYSMTSDYWNWIRQPPGKKLEWIGYISYSGRTYYNPSLKSRVTISRDTSKNQFSLKLSSVTAADTAVYYCARGDYSNYGGAMYDWGQGTTVTVSS VL: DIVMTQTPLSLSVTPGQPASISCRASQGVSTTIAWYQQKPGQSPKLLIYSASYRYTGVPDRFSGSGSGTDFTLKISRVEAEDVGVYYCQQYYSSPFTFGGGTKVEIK" numeric_value=9.13
binder="TIGIT-CHI-005 (antibody, V domains shown, Human-mouse chimeric antibody) VH: QVQLQQSGAELVRPGTSVKVSCKASGYAFTNYLIEWVKQRPGQGLEWIGVINPGSGGTNYKEKFKGKATLTADKSSSTAYMQLSSLTSEDSAVYFCARGEYFFFDYWGQGTTLTVSS VL: DIVMTQSHKFMSTSVGDRVSITCKASQHVSNGVAWYQHKPGQSPKLLIYSASYRYTGVPDRFTGTGSGTDFTFTISSVQAEDLAVYYCQQHYNTPHTFGGGTKLEIK" numeric_value=10.56
